Assign ATPase inhibition IC50 on SK-MEL-28 cells to each entry below.
Biological target: T1, human CD39 (full length, on cells) (human, UniProt P49961 1-510)
T1 sequence: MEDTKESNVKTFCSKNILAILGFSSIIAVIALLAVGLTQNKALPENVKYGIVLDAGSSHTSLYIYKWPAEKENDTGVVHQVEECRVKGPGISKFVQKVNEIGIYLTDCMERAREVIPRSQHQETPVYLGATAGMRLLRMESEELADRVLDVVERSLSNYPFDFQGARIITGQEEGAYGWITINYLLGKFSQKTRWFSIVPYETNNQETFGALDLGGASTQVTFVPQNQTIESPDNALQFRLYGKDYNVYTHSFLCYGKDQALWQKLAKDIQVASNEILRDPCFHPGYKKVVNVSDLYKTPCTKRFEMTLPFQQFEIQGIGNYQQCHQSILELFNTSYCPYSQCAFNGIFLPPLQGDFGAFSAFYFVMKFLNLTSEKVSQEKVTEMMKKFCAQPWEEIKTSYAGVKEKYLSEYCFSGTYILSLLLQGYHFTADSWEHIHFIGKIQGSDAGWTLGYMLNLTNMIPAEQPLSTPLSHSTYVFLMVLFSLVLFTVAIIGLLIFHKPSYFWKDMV
Experiment: cell-based or functional assay
Give bare numbers, in nM.

Answered cases to consult:
hu23.H7L6 (antibody, V domains shown, humanized c23) VH: EVQLVQSGAEVKKPGASVKLSCKASGYNLKDTFLHWVKQAPGQGLEWIGRIDPANGNIKYDPKFQGKATLTADTSANTAYLELISLRSEDTAVYYCANSPYYYGSGYRIFDVWGQGTTVTVSS VL: QIVLTQSPATLSASPGERATLSCSAFSSVNYMHWYQQKPGQAPKLLIYTTSNLASGVPTRFSGSGSGTSYTLTISSMEPEDFAVYYCQQRSTYPFTFGQGTKLEIK ... 0.121
hu23.203 (antibody, V domains shown, humanized c23 by yeast display) VH: QVQLVQSGAEVKKPGASVKVSCKASGYTLKDTFLHWVRQAPGQRLEWMGRIDPANGNIKYDPKFQGRVTLTADTSSNTAYMELSSLRSEDTAVYYCANSPYYYGSGYRIFDVWGQGTLVTVSS VL: EIVLTQSPATLTLSPGERATLSCSAFSSVNYMHWYQQKPGQAPRLLIYTTSNLASGIPARFSGSGSGTDYTLTISSLEPEDFAVYYCQQRSTYPFTFGQGTKLEIK ... 0.32
hu23.H1L4 (antibody, V domains shown, humanized c23) VH: QVQLVQSGAEVKKPGASVKVSCKASGYNLKDTFLHWVRQAPGQRLEWMGRIDPANGNIKYDPKFQGRVTITRDTSASTAYMELSSLRSEDTAVYYCARSPYYYGSGYRIFDVWGQGTTVTVSS VL: EIVLTQSPATLSASPGERVTISCSAFSSVNYMHWYQQKPGQAPRLLIYTTSNLASGIPARFSGSGSGTDYTLTISSMEPEDFAVYYCQQRSTYPFTFGQGTKLEIK ... 0.59
hu23.H5L5 (antibody, V domains shown, humanized c23) VH: QVQLVQSGAEVKKPGASVKVSCKASGYNLKDTFLHWVRQAPGQGLEWMGRIDPANGNIKYDPKFQGRVTITADTSANTAYMELISLRSEDTAVYYCANSPYYYGSGYRIFDVWGQGTTVTVSS VL: QIVLTQSPATLSLSPGERATLSCSAFSSVNYMHWYQQKPGQAPRLLIYTTSNLASGIPTRFSGSGSGTSYTLTISSLEPEDFAVYYCQQRSTYPFTFGQGTKLEIK ... 0.122

Next item in the queue.
*Q* Any idea what ATPase inhibition IC50 on SK-MEL-28 cells was measured for hu23.H4L4 (antibody, V domains shown, humanized c23) VH: QVQLVQSGAEVKKPGASVKLSCKASGYNLKDTFLHWVKQAPGQGLEWIGRIDPANGNIKYDPKFQGRATLTADTSASTAYLELSSLRSEDTAVYYCANSPYYYGSGYRIFDVWGQGTTVTVSS VL: EIVLTQSPATLSASPGERVTISCSAFSSVNYMHWYQQKPGQAPRLLIYTTSNLASGIPARFSGSGSGTDYTLTISSMEPEDFAVYYCQQRSTYPFTFGQGTKLEIK ?
*A* 0.487
